# run description: protein stability index of a GFP-peptide fusion (yeast GPS) (PSI 1-4); higher = more stable; sorted into four equal gates, so the index is relative within each strain
# stated conditions: ubr1∆
property measured: protein stability index
Give bare numbers.

Example cases with answers are listed next.
query: I'd like to know its protein stability index. The sequence in question is KIDLASGKITDFIKFDA [RPS4A]
result: 3.35

query: I'd like to know its protein stability index. The sequence in question is FLRTQFLKLYVLVKWTR [RGR1]
result: 1.56

query: I'd like to know its protein stability index. The sequence in question is LKIHQSHLVVPYCPIAS [YMR129W/POM152]
result: 1.28

query: I'd like to know its protein stability index. The sequence in question is WIKNEQERQRQIQKNGP [PRP8]
result: 2.84

query: I'd like to know its protein stability index. The sequence in question is EQRHLKRELKRAQEEVK [RPT3]
result: 3.17

query: I'd like to know its protein stability index. The sequence in question is FKKQMQTIMKMGPLSNI [SRP54]
result: 2.92

query: I'd like to know its protein stability index. The sequence in question is LPAAVSKSLQESGDTQE [RPC82]
result: 2.83

query: I'd like to know its protein stability index. The sequence in question is AMHYSSNIELAFSSVEH [COB]
result: 2.09

query: I'd like to know its protein stability index. The sequence in question is RRKDTSMVLFFVCLSCS [RPB9]
result: 1.38

query: I'd like to know its protein stability index. The sequence in question is NTMSAWVNMLLISSSGP [FAS2]
result: 1.52

Each sequence below has a reported value. Please supply its protein stability index.
1. EKKLEDYCRILSDIETA [YGL172W/NUP49]
2. LSNLHESNKRYRFFKKI [SNF12]

result:
[2.55, 2.24]

Each sequence below has a reported value. Please supply its protein stability index.
1. VENWIIDDKGVLMERKD [ITC1]
2. YIRKLISSGLLYLQDSN [SRB8]

result:
[2.7, 1.11]
